target of assay: Human Cav3.1 calcium channel (Homo sapiens)
Construct: expressed in transfected cells; host or cells: HEK-293 natClytin/TASK1+Cav3.1 cell line
Sequence (O43497 whole entry): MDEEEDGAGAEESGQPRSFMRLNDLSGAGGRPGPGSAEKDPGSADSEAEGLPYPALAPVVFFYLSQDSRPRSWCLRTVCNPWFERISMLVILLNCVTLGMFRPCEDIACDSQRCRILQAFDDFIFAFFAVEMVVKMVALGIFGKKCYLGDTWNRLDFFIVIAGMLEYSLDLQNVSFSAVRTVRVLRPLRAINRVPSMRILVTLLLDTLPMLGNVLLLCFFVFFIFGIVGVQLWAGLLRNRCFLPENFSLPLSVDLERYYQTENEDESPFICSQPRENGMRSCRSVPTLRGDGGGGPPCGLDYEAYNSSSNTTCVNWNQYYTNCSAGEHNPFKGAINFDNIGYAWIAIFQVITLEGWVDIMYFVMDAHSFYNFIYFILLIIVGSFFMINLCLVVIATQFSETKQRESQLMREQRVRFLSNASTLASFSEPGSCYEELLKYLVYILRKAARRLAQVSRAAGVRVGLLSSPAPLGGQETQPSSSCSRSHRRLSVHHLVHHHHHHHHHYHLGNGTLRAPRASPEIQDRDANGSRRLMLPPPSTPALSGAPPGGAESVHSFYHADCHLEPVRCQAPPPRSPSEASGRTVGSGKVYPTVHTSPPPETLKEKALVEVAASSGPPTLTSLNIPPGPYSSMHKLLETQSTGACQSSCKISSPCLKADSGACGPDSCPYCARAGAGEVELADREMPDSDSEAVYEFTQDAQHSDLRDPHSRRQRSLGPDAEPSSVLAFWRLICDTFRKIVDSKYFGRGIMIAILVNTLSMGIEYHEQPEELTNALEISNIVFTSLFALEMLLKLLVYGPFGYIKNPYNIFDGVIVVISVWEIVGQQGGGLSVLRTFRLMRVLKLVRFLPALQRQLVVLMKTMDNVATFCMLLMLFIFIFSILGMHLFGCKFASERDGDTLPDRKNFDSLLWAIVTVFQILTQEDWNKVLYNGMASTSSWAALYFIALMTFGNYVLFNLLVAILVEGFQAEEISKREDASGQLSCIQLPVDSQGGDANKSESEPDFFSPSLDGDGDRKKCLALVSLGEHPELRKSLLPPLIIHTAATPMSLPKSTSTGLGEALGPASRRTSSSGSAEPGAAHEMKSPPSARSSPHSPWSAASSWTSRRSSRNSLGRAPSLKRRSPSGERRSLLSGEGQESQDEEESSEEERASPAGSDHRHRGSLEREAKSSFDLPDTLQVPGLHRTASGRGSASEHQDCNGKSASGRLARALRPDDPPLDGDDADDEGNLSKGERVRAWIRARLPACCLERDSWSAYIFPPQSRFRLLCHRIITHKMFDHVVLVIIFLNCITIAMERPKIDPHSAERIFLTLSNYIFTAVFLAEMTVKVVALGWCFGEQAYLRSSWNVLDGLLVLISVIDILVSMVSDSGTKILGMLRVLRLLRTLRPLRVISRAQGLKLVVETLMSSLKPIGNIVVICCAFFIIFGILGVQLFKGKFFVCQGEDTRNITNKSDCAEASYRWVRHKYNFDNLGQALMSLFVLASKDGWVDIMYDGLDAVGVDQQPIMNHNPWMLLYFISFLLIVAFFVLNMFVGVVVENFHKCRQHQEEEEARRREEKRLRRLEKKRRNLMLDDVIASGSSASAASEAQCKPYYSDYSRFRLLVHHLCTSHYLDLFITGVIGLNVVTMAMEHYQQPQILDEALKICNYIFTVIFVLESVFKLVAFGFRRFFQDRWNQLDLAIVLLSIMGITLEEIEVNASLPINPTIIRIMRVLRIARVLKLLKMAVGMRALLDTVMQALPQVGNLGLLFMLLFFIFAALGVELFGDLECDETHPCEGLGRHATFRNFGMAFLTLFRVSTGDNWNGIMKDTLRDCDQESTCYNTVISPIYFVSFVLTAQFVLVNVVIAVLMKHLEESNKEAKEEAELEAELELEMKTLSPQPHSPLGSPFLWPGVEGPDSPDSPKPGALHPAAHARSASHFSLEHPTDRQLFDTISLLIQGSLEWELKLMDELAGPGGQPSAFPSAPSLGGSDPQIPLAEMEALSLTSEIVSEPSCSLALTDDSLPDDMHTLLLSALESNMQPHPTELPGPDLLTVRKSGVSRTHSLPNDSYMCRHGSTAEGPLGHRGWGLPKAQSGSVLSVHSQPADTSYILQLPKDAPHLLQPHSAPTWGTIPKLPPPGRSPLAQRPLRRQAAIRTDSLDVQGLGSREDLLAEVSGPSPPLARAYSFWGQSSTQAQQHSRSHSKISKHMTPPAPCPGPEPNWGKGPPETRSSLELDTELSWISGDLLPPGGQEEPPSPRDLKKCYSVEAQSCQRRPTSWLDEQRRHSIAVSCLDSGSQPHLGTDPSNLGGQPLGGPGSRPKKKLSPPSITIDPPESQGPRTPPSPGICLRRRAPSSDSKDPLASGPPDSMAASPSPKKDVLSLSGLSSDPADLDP
experiment summary: Human Cav3.1 calcium channel patch clamp assay (SyncroPatch 384PE; single point and IC50, voltage dependent block)
Type: cell-based
setup conditions: voltage dependent block (VDB); HEK-293 natClytin/TASK1+Cav3.1 cell line; read-out: Cav3.1 IC50
pIC50: −log10 of the molar value.
Hi, to clarify the labels: fulfilled covers pIC50 from 6 upward, not fulfilled covers anything below 6.

Problem: Does pIC50 meet or surpass 6 for O=C(CN1CC2CC(C1)N2CC(=O)NC1(C(F)(F)F)CC1)Nc1cc(F)c(F)c(Cl)c1 [Compound 349] ?
Result: fulfilled

Problem: // inclusive: pIC50 at least 6? input: CC(C)(C)NC(=O)CN1C[C@@H]2C[C@H]1CN2CCNC(=O)C12CC3CC(CC(C3)C1)C2 [Compound 323]
Result: not fulfilled

Problem: Does O=C(CN1CC2CC(C1)N2CCNC(=O)C1(C(F)(F)F)CC1)Nc1cc(F)cc(Cl)c1 [Compound 232] have a reported pIC50 of at least 6?
Result: fulfilled

Problem: Item CC(C)(C)NC(=O)CN1C2CC1CN(CC(=O)Nc1ccc(F)c(C(F)F)c1)C2 [Compound 250] with pIC50 of 6 or above?
Result: fulfilled

Problem: Dear colleague, could you confirm whether C[C@H](NC(=O)CN1CC2CC(C1)N2CC(=O)NC(C)(C)C)C12CC3CC(CC(C3)C1)C2 [Compound 325] has pIC50 at or above 6?
Result: not fulfilled

Problem: Is reported pIC50 greater than or equal to 6 here: O=C(CN1C[C@@H]2C[C@H]1CN2CC(=O)NC1(C(F)(F)F)CC1)Nc1ccc(F)c(Cl)c1 [Compound 25]
Result: fulfilled

Problem: Say whether CC(C)(C)NC(=O)CN1C2CC1CN(CC(=O)Nc1ccc(F)c(OC(F)(F)F)c1)C2 [Compound 242] shows pIC50 of 6 or more.
Result: fulfilled

Problem: Does pIC50 meet or surpass 6 for CC(C)(C)NC(=O)CN1C2CC1CN(Cc1nc3c(Cl)cc(F)cc3o1)C2 [Compound 115] ?
Result: not fulfilled

Problem: Determine whether this molecule has pIC50 no lower than 6: O=C(CN1C[C@@H]2C[C@H]1CN2CC(=O)NC1(C(F)(F)F)COC1)NC12CC3CC(CC(C3)C1)C2 [Compound 319]
Result: not fulfilled
